Biological target: Recombinant human ASK1 kinase (Homo sapiens)
Construct: purchased Invitrogen Inc
Sequence (Q99683 1-1374): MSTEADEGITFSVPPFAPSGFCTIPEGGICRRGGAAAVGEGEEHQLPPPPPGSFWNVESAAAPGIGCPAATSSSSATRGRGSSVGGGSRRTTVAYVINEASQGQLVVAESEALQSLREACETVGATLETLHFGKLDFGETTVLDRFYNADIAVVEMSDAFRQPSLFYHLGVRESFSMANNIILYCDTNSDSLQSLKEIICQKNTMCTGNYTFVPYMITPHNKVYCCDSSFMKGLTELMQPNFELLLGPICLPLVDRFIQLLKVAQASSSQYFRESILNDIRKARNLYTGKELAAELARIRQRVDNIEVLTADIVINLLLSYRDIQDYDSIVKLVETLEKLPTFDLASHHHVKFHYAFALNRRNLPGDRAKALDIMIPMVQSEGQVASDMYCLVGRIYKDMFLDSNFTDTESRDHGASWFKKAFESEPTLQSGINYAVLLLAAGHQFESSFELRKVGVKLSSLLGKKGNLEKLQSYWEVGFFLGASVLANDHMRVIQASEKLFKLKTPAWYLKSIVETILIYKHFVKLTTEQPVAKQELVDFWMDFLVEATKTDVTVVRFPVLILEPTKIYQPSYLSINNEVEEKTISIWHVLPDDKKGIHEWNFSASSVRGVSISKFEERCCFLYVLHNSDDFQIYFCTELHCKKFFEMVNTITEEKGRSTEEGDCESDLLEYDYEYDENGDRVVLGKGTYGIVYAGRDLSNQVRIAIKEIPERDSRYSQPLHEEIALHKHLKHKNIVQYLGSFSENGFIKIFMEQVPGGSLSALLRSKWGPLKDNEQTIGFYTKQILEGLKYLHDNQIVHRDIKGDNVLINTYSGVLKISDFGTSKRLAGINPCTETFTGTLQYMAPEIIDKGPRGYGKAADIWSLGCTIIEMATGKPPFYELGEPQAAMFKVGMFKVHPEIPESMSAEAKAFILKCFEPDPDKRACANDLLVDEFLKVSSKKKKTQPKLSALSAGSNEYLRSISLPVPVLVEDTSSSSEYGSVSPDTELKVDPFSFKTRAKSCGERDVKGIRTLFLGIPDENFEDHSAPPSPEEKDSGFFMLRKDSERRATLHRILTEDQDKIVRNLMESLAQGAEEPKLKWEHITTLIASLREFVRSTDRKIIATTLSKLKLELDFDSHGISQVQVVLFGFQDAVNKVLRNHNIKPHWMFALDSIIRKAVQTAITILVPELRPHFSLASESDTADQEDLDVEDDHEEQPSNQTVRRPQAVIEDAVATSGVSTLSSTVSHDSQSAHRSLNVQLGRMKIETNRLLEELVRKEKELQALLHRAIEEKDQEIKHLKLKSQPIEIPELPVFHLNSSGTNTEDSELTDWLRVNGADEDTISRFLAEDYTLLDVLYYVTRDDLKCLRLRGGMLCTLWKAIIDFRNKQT
Assay: ASK1 kinase HTRF assay (HTRF KinEASE-STK, phosphorylation of biotinylated peptide substrate)
Type: biochemical
Details: 3 nM ASK1 kinase, 1 uM STK-substrate-biotin, HTRF detection; read-out: EC50

{"columns": ["Compound", "EC50"],
 "data": [
  ["CC(C)n1cnnc1-c1cccc(NC(=O)Nc2cc(C(=O)N3CCc4ccccc4C3)ccn2)n1", "< 50 nM"],
  ["CC(C)n1cnnc1-c1cccc(NC(=O)Nc2cc(S(C)(=O)=O)ccn2)n1", "< 50 nM"],
  ["Cc1ccc(NC(=O)Nc2cccc(-c3nncn3C(C)C)n2)cn1", "50 to 500 nM"],
  ["Cc1cnc(NC(=O)Nc2cccc(-c3nncn3C(C)C)n2)nc1", "< 50 nM"],
  ["CC(C)n1cnnc1-c1cccc(NC(=O)Nc2ccc(C#N)cn2)n1", "< 50 nM"],
  ["CC(C)n1cnnc1-c1cccc(NC(=O)Nc2cc([N+](=O)[O-])ccn2)n1", "< 50 nM"],
  ["CC(C)n1cnnc1-c1cccc(NC(=O)Nc2cc(C(=O)Nc3ccccn3)ccn2)n1", "< 50 nM"],
  ["CC(C)n1cnnc1-c1cccc(NC(=O)Nc2cc(C(=O)N3CCCC[C@@H]3C)ccn2)n1", "< 50 nM"],
  ["C[C@H](CO)n1cnnc1-c1cccc(NC(=O)Nc2cc(C3CCOCC3)ccn2)n1", "< 50 nM"],
  ["COc1cccnc1NC(=O)Nc1cccc(-c2nncn2C(C)C)n1", "< 50 nM"],
  ["CC(C)n1cnnc1-c1cccc(NC(=O)Nc2cc(C(=O)Nc3cccc(F)c3)ccn2)n1", "< 50 nM"],
  ["C[C@@H]1CCCCN1C(=O)c1ccnc(NC(=O)Nc2cccc(-c3nncn3[C@H](C)CO)n2)c1", "< 50 nM"],
  ["CC(C)n1cnnc1-c1cccc(NC(=O)Nc2ccc(-c3ccccc3)cn2)n1", "< 50 nM"],
  ["CC(C)n1cnnc1-c1cccc(NC(=O)Nc2ccc(F)cn2)n1", "< 50 nM"],
  ["CC(C)n1cnnc1-c1cccc(NC(=O)Nc2cc(C(=O)Nc3ccncc3)ccn2)n1", "< 50 nM"],
  ["CC(CN)n1cnnc1-c1cccc(NC(=O)Nc2ccccn2)n1 (stereo not drawn)", "50 to 500 nM"],
  ["CC(C)n1cnnc1-c1cccc(NC(=O)Nc2cc(C(=O)N3CCCC[C@H]3C)ccn2)n1", "< 50 nM"],
  ["CC(C)n1cnnc1-c1cccc(NC(=O)Nc2cccc(-c3nncn3C(C)C)n2)n1", "50 to 500 nM"],
  ["C[C@H](CO)n1cnnc1-c1cccc(N2CCN(c3ccc(N4CCOCC4)cn3)C2=O)n1", "< 50 nM"],
  ["CC(C)n1cnnc1-c1cccc(NC(=O)Nc2ncccc2OCc2ccccc2)n1", "< 50 nM"],
  ["CC(C)n1cnnc1-c1cccc(NC(=O)Nc2ncccn2)n1", "< 50 nM"],
  ["CC(C)n1cnnc1-c1cccc(NC(=O)Nc2ncccc2Br)n1", "< 50 nM"],
  ["COc1ccnc(NC(=O)Nc2cccc(-c3nncn3C(C)C)n2)c1", "< 50 nM"],
  ["CC(C)n1cnnc1-c1cccc(NC(=O)Nc2cc(C(=O)Nc3ccc(F)cc3)ccn2)n1", "< 50 nM"],
  ["CC(C)n1cnnc1-c1cccc(NC(=O)Nc2ccc(-c3ccccn3)cn2)n1", "< 50 nM"],
  ["Cc1cnc(NC(=O)Nc2cccc(-c3nncn3C(C)C)n2)cn1", "< 50 nM"],
  ["CC(C)n1cnnc1-c1cccc(NC(=O)Nc2cc(N3CCNCC3)ccn2)n1", "< 50 nM"],
  ["CC(C)n1cnnc1-c1cccc(-n2ccn(-c3ccc(N4CCOCC4)cn3)c2=O)n1", "< 50 nM"],
  ["CC(C)(C)n1cnnc1-c1cccc(NC(=O)Nc2cc(C(=O)N3CCCCC3)ccn2)n1", "< 50 nM"],
  ["Cc1cc(F)c(NC(=O)Nc2cccc(-c3nncn3C(C)C)n2)cc1-n1cnc(C2CC2)c1", "500 to 5000 nM"],
  ["CC(C)n1cnnc1-c1cccc(NC(=O)Nc2cc(C(=O)N3CCC(C)(O)CC3)ccn2)n1", "< 50 nM"],
  ["CC(C)n1cnnc1-c1cccc(N2CCN(c3ccc(-c4ccncc4)cn3)C2=O)n1", "< 50 nM"],
  ["CC(C)n1cnnc1-c1cccc(NC(=O)Nc2ccc(-n3ccnc3)cn2)n1", "50 to 500 nM"]
]}

Origin of the recorded values: patent US11427556B2
